- system.under.test: HA of influenza B virus B/Hong Kong/5/72 (influenza B virus B/Hong Kong/5/72)
- procedure.summary: cell-based or functional assay
metric: Neutralization (Ave IC50 ug/ml) (µg/mL)
Answer with a number only, understood to be in µg/mL.

Worked examples follow.
| binder | metric | unit.spec | measured.result |
| --- | --- | --- | --- |
| FBC-39 FTL (antibody, V domains shown) VH: EVQLVESGGGLVKPGGSLRLSCAASGFTFLNAWMSWVRQAPGKGLEWVGRIKSNTDGGTTDYAAPVKGRFTISRDDSKNTLYLQMSSLKTEDTAVYYCTTDGPYSDDFRSGYAARYRYFGMDVWGQGTTVTVSS VL: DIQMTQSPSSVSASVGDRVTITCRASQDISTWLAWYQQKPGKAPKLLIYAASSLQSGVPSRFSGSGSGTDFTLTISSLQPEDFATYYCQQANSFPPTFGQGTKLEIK | Neutralization (Ave IC50 ug/ml) | µg/mL | 0.022 |
| FBD-94 (antibody, V domains shown) VH: EVQLVESGGGLVQPGRSLRLSCAVSGFIFEDYAINWVRQAPGKGLEWVSIISWDSGRIGYADSVRGRFTISRDNAKNSSFLQMNSLRPEDTAVYYCVKDMLAYYYDGSGIRYNLYGMDVWGQGTTVTVSS VL: EIVLTQSPATLSLSPGERATLSCRASRSITTFLAWYQQKPGQAPRLLIYDASNRATGVPARFSGSGSGTDFTLTINSLEPDDFAIYYCQQRDHWPPIFGQGTRLEIK | Neutralization (Ave IC50 ug/ml) | µg/mL | 0.017 |
| FBC-39 FSL (antibody, V domains shown) VH: EVQLVESGGGLVKPGGSLRLSCAASGFSFLNAWMSWVRQAPGKGLEWVGRIKSNTDGGTTDYAAPVKGRFTISRDDSKNTLYLQMSSLKTEDTAVYYCTTDGPYSDDFRSGYAARYRYFGMDVWGQGTTVTVSS VL: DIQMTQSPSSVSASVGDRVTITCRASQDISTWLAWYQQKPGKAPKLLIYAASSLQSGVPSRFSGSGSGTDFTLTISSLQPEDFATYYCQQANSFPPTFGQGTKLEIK | Neutralization (Ave IC50 ug/ml) | µg/mL | 0.019 |
| FBC-39 LSL (antibody, V domains shown) VH: EVQLVESGGGLVKPGGSLRLSCAASGLSFLNAWMSWVRQAPGKGLEWVGRIKSNTDGGTTDYAAPVKGRFTISRDDSKNTLYLQMSSLKTEDTAVYYCTTDGPYSDDFRSGYAARYRYFGMDVWGQGTTVTVSS VL: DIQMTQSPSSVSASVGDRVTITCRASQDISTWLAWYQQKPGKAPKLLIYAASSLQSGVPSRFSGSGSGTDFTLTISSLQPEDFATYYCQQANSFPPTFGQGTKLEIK | Neutralization (Ave IC50 ug/ml) | µg/mL | 0.019 |
| FBD-56 (antibody, V domains shown) VH: EVQLVESGGHLVQPGRSLRLSCAASGFTFEDYAMNWVRQAPGKGLEWVSVISWDSGRIGYADSVKGRFTISRDNAKNSSYLQMNSLRPEDTALYYCVRDMLAYYSDNSGKKYNVYGMDVWGQGTTVTVSS VL: EIVLTQSPATLSLSPGERATLSCRASQSVSTFLAWYQQKPGQAPRLLMYDASNRATGIPARFSGSGSGTDFTLTISSLEPEDFAIYYCQQRSHWPPIFGQGTRLEIK | Neutralization (Ave IC50 ug/ml) | µg/mL | 0.051 |

Now, please, on to the next binder.
Exercise: Consider the binder FBC-39 LTL (antibody, V domains shown) VH: EVQLVESGGGLVKPGGSLRLSCAASGLTFLNAWMSWVRQAPGKGLEWVGRIKSNTDGGTTDYAAPVKGRFTISRDDSKNTLYLQMSSLKTEDTAVYYCTTDGPYSDDFRSGYAARYRYFGMDVWGQGTTVTVSS VL: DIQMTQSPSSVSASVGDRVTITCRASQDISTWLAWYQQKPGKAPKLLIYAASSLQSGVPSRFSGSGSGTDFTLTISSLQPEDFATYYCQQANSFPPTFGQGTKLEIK . State its measured Neutralization (Ave IC50 ug/ml).
Solution: 0.018

Ref: patent US20250263470A1
